target: FITC-labelled JD_(1-77) (human, UniProt Q8NHS0 1-77, FITC-maleimide label (site not stated)); experiment: fluorescence polarisation
Sequence (Q8NHS0 1-77): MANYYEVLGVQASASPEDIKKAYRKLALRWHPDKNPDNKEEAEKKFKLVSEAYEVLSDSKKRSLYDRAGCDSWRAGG
observation-type: Kd (nM)
Numbers only, in nM.

Ask: If you can, please state the reported Kd value of DnaJB8 C-terminal domain CTD_(170-232) (domain or fragment, human, UniProt Q8NHS0 170-232, looked up) GGSSSGSSGFKSVMSSTEMINGHKVTTKRIVENGQERVEVEEDGQLKSVTVNGKEQLKWMDSK .
Reply: 542
